Assignment: determine reported remaining at 1 h, 10 µM for the given molecules.
Assay: Peptide stability in simulated gastric fluid (SGF)
Format: in vitro ADME
Conditions: pig, simulated gastric fluid (SGF) with porcine pepsin (3.2 g/L), pH 1.2, 10 µM, 37 °C, porcine pepsin, pH 1.2, 1 h; read-out: SGF (% remaining 1 h)
Where a SMILES comes first, the peptide text is derived from it. Bridges are numbered along the chain shown (N, C = ends). [ ]: non-standard residue; d: D form. 2Nal = N[C@@H](Cc1ccc2ccccc2c1)C(=O)O; AEF = NCCOc1ccc(C[C@H](N)C(=O)O)cc1; 3Pal = N[C@@H](Cc1cccnc1)C(=O)O; αMeL = CC(C)C[C@](C)(N)C(=O)O; Dab = NCC[C@H](N)C(=O)O
Only the number, expressed in %, is required.

Enquiry: State, in one line, measured remaining at 1 h, 10 µM of CNC(=O)[C@H](Cc1cccnc1)NC(=O)[C@H](Cc1cccnc1)NC(=O)[C@@H]1CCC(=O)NCCCC[C@@H]2NC(=O)CC[C@H](NC(=O)[C@H](CCC(N)=O)NC(=O)[C@H](Cc3c[nH]c4ccccc34)NC(=O)CCNC2=O)C(=O)N[C@@H](Cc2ccc(OCCN)cc2)C(=O)N[C@@H](Cc2ccc3ccccc3c2)C(=O)N[C@@](C)(CC(C)C)C(=O)N1 [Compound 87]
Return: 87

Enquiry: State, in one line, measured remaining at 1 h, 10 µM of CNC(=O)[C@H](Cc1cccnc1)NC(=O)[C@H](CCN)NC(=O)[C@@H]1CCC(=O)NCCCC[C@@H]2NC(=O)CC[C@H](NC(=O)[C@H](CCC(N)=O)NC(=O)[C@H](Cc3c[nH]c4ccccc34)NC2=O)C(=O)N[C@@H](Cc2ccc(OCCN)cc2)C(=O)N[C@@H](Cc2ccc3ccccc3c2)C(=O)N[C@@](C)(CC(C)C)C(=O)N1 [Compound 43] (KWQE[AEF][2Nal][αMeL]E[Dab][3Pal]-NHMe; lactam 1-8, N-4)
Return: 110
